Item-by-item account of protein stability index
B1: MYOZ1 (parent)
chain: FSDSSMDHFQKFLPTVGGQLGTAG

Variants of: B1
Assay: protein stability index of a GFP-peptide fusion (GPS, HEK-293T) (PSI 1-6); higher = more stable;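 further: lentivirally expressed fusions sorted by FACS into six bins by GFP to DsRed ratio, PSI derived from sequencing read proportions per bin multiplied by bin number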
Details: c terminus: a fixed tail appended
REPORTED ENDPOINT: protein stability index

{"columns": ["RESIDUE CODES", "REPORTED VALUE"],
 "data": [
  ["FSDSSMDHFQKFLPTVGGYLGTAG [Q19Y]", 2.04],
  ["FSDSSMDHFQKFLPTVGHQLGTAG [G18H]", 2.04],
  ["FSDSSMDHFQKFLPTVGGQLMTAG [G21M]", 2.28],
  ["FSESSMDHFQKFLPTVGGQLGTAG [D3E]", 3.06],
  ["FSQSSMDHFQKFLPTVGGQLGTAG [D3Q]", 2.27],
  ["FSDQSMDHFQKFLPTVGGQLGTAG [S4Q]", 1.92],
  ["FSDSSMDHFQKFLPTVGGQLGTAW [G24W]", 1.23],
  ["FSDSSMQHFQKFLPTVGGQLGTAG [D7Q]", 2.02],
  ["FSDSSMDHFQKFLPMVGGQLGTAG [T15M]", 1.85],
  ["FSDSGMDHFQKFLPTVGGQLGTAG [S5G]", 1.88],
  ["FSDSSMDHFQKILPTVGGQLGTAG [F12I]", 2.08],
  ["FSDSSMDHFQKFLPTVGGQLGEAG [T22E]", 3.05],
  ["FSDSSMDHFQKFLPTVPGQLGTAG [G17P]", 2.59],
  ["FSDSSMDHFIKFLPTVGGQLGTAG [Q10I]", 2.91],
  ["FQDSSMDHFQKFLPTVGGQLGTAG [S2Q]", 2.59],
  ["FSDSNMDHFQKFLPTVGGQLGTAG [S5N]", 3.11],
  ["FSDSSMDHFQKFLPTVGGQLQTAG [G21Q]", 2.04],
  ["FSDSSMDHMQKFLPTVGGQLGTAG [F9M]", 3.37],
  ["FSDSSMDHFQKFLPTVGPQLGTAG [G18P]", 2.43],
  ["FSDSSMDHEQKFLPTVGGQLGTAG [F9E]", 4.4],
  ["FSDSSMDEFQKFLPTVGGQLGTAG [H8E]", 2.34],
  ["FSDSTMDHFQKFLPTVGGQLGTAG [S5T]", 2.98],
  ["FSDSSMDHFQAFLPTVGGQLGTAG [K11A]", 1.79],
  ["FSDSSMDHFQKFLPTVGGQLGTSG [A23S]", 1.83],
  ["FSDSSMDHFHKFLPTVGGQLGTAG [Q10H]", 2.31],
  ["FSDSSMDHFQKQLPTVGGQLGTAG [F12Q]", 3.04],
  ["FSDSSMDHFQKFLPTGGGQLGTAG [V16G]", 2.98],
  ["FSDCSMDHFQKFLPTVGGQLGTAG [S4C]", 1.43],
  ["FFDSSMDHFQKFLPTVGGQLGTAG [S2F]", 1.62],
  ["FSDSSMDHFQKSLPTVGGQLGTAG [F12S]", 3.67],
  ["FSDWSMDHFQKFLPTVGGQLGTAG [S4W]", 2.89],
  ["FSDSSMDHFQKFHPTVGGQLGTAG [L13H]", 3.29],
  ["FSDSSMDNFQKFLPTVGGQLGTAG [H8N]", 2.48]
]}
